Assay explanation: Toxicity liver stage against HepG2, at 10uM
Assay type: cell-based
Set-up: test concentration 10 uM, cell line HepG2-A16-CD81EGFP
Test context: human, HepG2-A16-CD81EGFP cells; read-out: INHIBITION
Readout label: cytotoxicity at 10 µM (%)
Dear colleague, please return just the value in %, with no unit written.

-- ask Data request, read-out cytotoxicity at 10 µM, for Cc1cc2nc(C(=O)NCc3cccnc3N(C)C)cc(C)n2n1
-- reply -5.54

-- ask Data request, read-out cytotoxicity at 10 µM, for O=C([C@@H]1CCO[C@@H]2CCN(Cc3ccsc3)C[C@@H]21)N1CCCC1
-- reply -81.4

-- ask Data request, read-out cytotoxicity at 10 µM, for Cc1cc(C)n(CCC(=O)N2CCC(Nc3cccnn3)CC2)n1
-- reply -6.36

Continuing:
-- ask Data request, read-out cytotoxicity at 10 µM, for C[C@@H]1C[C@@H]2CCN(C(=O)c3cnccn3)C[C@H]2O1
-- reply -10.6

-- ask Data request, read-out cytotoxicity at 10 µM, for O=C(CCN1CCC(C(=O)c2cc(F)ccc2F)CC1)NC1CCCC1
-- reply 4.76

-- ask Data request, read-out cytotoxicity at 10 µM, for CN(C)S(=O)(=O)N1CCC(C)(c2ncc(C(N)=O)s2)CC1
-- reply -0.318

-- ask Data request, read-out cytotoxicity at 10 µM, for Cc1occc1C(=O)N1CCc2c(CNS(C)(=O)=O)cncc2C1
-- reply 8.68

-- ask Data request, read-out cytotoxicity at 10 µM, for NS(=O)(=O)c1ccc(NCc2ccccc2F)cc1C(F)(F)F
-- reply -10.2

-- ask Data request, read-out cytotoxicity at 10 µM, for CCN(CC)CCN(C)c1nc(-c2ccc(Cl)cc2)nc2c1CNC2
-- reply 1.78

-- ask Data request, read-out cytotoxicity at 10 µM, for CC(C)(C)C1CCC(O)(CNC(=O)CCS(C)(=O)=O)CC1 (configuration not stated)
-- reply 6.51

-- ask Data request, read-out cytotoxicity at 10 µM, for CCCn1cc(-c2ccnc(NC3CCCc4ccccc43)n2)c(C)n1 (configuration not stated)
-- reply 81.4

-- ask Data request, read-out cytotoxicity at 10 µM, for CC1N(C)C(=O)COC12CCN(Cc1ccsc1)CC2 (configuration not stated)
-- reply -5.24

-- ask Data request, read-out cytotoxicity at 10 µM, for CCn1ncc(Br)c1CN(C)S(=O)(=O)c1ccc(C)cc1
-- reply 14.5

-- ask Data request, read-out cytotoxicity at 10 µM, for CC1COCCN1C(=O)COc1ccc(Oc2ccccn2)cc1 (configuration not stated)
-- reply -8.87

-- ask Data request, read-out cytotoxicity at 10 µM, for CC(C)[C@H]1COC(=O)N1CC(=O)N1CCN(C(=O)c2ccco2)CC1
-- reply 4.32

-- ask Data request, read-out cytotoxicity at 10 µM, for Cn1ncc(C(=O)O)c1C(=O)Nc1nc2ccccc2s1
-- reply 7.9

-- ask Data request, read-out cytotoxicity at 10 µM, for COc1c(CNCc2ccccc2CN2CCOCC2)c(C)nn1C
-- reply -0.686

-- ask Data request, read-out cytotoxicity at 10 µM, for c1ncn(CC2CCCN2Cc2cn3ccsc3n2)n1 (configuration not stated)
-- reply -10.1

-- ask Data request, read-out cytotoxicity at 10 µM, for Cc1ccsc1[C@@H]1CCN(C(=O)CCOc2ccccc2)C[C@H]1O
-- reply -0.602

-- ask Data request, read-out cytotoxicity at 10 µM, for CCCc1nc(NCc2c(C)nn(CCC)c2C)c2cnn(C)c2n1
-- reply 9.66

-- ask Data request, read-out cytotoxicity at 10 µM, for c1cnc2[nH]nc(C3CCN(Cc4ccsc4)CC3)c2c1
-- reply -27.3

-- ask Data request, read-out cytotoxicity at 10 µM, for COc1ccccc1C1(CNc2cc(C(=O)N(C)C)ccn2)CC1
-- reply -1.6

-- ask Data request, read-out cytotoxicity at 10 µM, for CCc1nc(C)c([C@H]2CN(C)C[C@@H]2C(=O)NCc2ccccc2OC)[nH]1
-- reply 0.15
